# MEASURED TARGET: Hypoxanthine-guanine phosphoribosyltransferase (Homo sapiens, UniProt P00492)
# METHOD: Inhibition of human HGPRT assessed as inhibitor constant for enzyme-inhibitor complex formation using [5'-14C]IMP as substrate by scintillation counting method
ASSAY READOUT: pKi
Field pKi (float): negative decimal logarithm of the concentration in molar.

Query :: Report pKi for `Nc1nc2c([C@@H]3N[C@H](COP(=O)(O)O)[C@@H](O)[C@H]3O)c[nH]c2c(=O)[nH]1` tested on Hypoxanthine-guanine phosphoribosyltransferase (Homo sapiens, UniProt P00492).
Result :: 7.25

----------
# MEASURED TARGET: Adenosine deaminase (Plasmodium falciparum, UniProt Q86GS5)
# Sequence (Q86GS5 whole entry): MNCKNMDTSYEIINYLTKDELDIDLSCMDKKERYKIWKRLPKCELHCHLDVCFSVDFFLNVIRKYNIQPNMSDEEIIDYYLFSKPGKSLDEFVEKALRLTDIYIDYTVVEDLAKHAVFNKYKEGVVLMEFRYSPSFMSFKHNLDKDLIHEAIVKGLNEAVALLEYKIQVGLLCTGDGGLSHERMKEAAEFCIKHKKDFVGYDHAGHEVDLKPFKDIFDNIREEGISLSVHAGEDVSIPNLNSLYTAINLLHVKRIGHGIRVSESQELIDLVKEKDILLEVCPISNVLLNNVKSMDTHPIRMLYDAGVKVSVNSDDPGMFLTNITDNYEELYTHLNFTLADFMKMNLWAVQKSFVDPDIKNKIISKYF
# METHOD: Inhibition of Plasmodium falciparum ADA assessed as reduction in formation of ammonia using adenosine as substrate incubated for 15 mins by spectrophotometric analysis
This section presents compounds with their documented pKi values.
Field pKi (float): negative decimal logarithm of the concentration in molar.

OC[C@H]1O[C@@H](n2cnc3c2N=CNC[C@H]3O)[C@H](O)[C@@H]1O 9.60

Next compound, please.
Query :: Report pKi for `OC[C@H]1O[C@@H](n2cnc3c2NC=NC[C@@H]3O)[C@H](O)[C@@H]1O` tested on Adenosine deaminase (Plasmodium falciparum, UniProt Q86GS5).
Result :: 11.15

----------
# MEASURED TARGET: GMP synthase [glutamine-hydrolyzing] (Homo sapiens, UniProt P49915)
# Sequence (P49915 whole entry): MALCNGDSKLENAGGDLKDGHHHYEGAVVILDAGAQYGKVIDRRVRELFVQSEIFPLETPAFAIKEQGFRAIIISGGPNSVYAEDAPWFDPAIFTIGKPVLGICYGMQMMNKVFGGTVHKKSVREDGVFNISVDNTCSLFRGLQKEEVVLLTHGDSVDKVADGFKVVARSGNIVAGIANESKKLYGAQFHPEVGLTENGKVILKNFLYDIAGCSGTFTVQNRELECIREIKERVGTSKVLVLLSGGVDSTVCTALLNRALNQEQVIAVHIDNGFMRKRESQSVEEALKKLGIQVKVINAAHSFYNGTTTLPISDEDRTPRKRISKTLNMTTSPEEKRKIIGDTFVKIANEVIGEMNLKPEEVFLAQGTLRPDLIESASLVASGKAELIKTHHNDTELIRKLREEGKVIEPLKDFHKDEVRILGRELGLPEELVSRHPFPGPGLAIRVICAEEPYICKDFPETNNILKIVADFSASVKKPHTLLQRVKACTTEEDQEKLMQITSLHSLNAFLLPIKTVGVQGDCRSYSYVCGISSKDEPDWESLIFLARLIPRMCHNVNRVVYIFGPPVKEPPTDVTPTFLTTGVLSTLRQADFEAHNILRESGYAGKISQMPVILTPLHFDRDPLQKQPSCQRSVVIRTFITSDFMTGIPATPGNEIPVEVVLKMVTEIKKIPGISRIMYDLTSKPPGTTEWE
ASSAY READOUT: IC50 (µM)
Numbers only here, please. The scale is µM.

Query :: For the compound `C=C1O[C@@](CO)(n2cnc3c(N)ncnc32)[C@H](O)[C@@H]1O` , what IC50 is on record?
Result :: 46.5

----------
# System: Plasmodium falciparum
# METHOD: Antimalarial activity against synchronized Plasmodium falciparum ring stage form assessed as reduction in [2,8-3H]Hypoxanthine incorporation incubated for 48 hrs followed by addition of [2,8-3H]Hypoxanthine and measured after 24 hrs by liquid scintillation counting method
# Type: functional, organism-based
ASSAY READOUT: IC50

Query :: For the molecule `Nc1ncnc2c1c(I)cn2[C@@H]1O[C@H](CO)[C@@H](O)[C@H]1O` , what IC50 is on record?
Result :: 2000 nM

----------
This section presents molecules with their documented pKi values.
# MEASURED TARGET: Hypoxanthine-guanine phosphoribosyltransferase (Homo sapiens)
# Sequence (P00492 whole entry): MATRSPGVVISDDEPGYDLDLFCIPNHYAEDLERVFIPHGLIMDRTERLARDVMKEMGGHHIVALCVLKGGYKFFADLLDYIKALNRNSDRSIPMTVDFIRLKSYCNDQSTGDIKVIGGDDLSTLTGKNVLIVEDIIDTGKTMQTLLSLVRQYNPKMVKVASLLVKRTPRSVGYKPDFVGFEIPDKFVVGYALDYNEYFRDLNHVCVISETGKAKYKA
# METHOD: Inhibition of human N-terminal His6-tagged HGPRT using Prib-PP as substrate by Hanes-plot based method
Field pKi (float): negative decimal logarithm of the concentration in molar.

Illustrative cases are given below, each with its answer.
Nc1nc2c(ncn2C[C@@H](CO)OCCP(=O)(O)O)c(=O)[nH]1 6.22
COC(=O)[C@H](Cn1cnc2c(=O)[nH]cnc21)OCCP(=O)(O)O 5.22

Next molecule, please.
Query :: For the molecule `Nc1nc2c(nc(Br)n2C[C@@H](CO)OCCP(=O)(O)O)c(=O)[nH]1` , what pKi is on record?
Result :: 4.89
